Cited source for all entries: patent US20210355104A1

- assayed_target: Adenosine A2A receptor (Homo sapiens, UniProt P29274)
- Sequence (P29274 whole entry): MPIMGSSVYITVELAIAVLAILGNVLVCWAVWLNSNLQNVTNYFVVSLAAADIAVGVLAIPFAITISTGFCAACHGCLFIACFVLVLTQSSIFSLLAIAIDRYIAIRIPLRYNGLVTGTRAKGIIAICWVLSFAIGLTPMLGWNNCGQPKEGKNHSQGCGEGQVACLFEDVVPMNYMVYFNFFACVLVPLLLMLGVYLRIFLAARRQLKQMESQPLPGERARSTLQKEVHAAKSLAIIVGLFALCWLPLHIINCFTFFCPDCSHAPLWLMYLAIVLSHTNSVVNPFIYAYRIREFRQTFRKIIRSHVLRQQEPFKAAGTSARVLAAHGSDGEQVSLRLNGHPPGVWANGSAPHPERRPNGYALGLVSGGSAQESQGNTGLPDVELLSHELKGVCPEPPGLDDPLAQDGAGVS
- assay_remarks: cAMP assay in 293A cells stably expressing the adenosine A2A receptor (CGS21680 stimulation, HTRF)
- Type: cell-based
- Set-up: expressed in transfected cells; host or cells: 293A cells (Invitrogen, Cat# R705-07) infected with A2A-expressing lentivirus (custom packaged by Biosettia), puromycin selected
- condition_context: 293A-A2AR cells, 0.1% BSA, 1 uM CGS; read-out: cAMP (nM) 0.1% BSA, 1 uM CGS
experimental_endpoint: IC50 (nM)

Some entries whose results are on file:
molecule	measurement_unit	IC50
Cc1cc(-c2c(OCc3cccc(C(O)CO)n3)nc(N)nc2-c2ccc(F)cc2)cc(C(F)F)n1 (stereo not drawn)	nM	965
Cc1cc(-c2c(OCc3nnn(CC(C)(C)O)n3)nc(N)nc2-c2ccc(F)cc2)cc(C(F)F)n1 [Example 242]	nM	2020
Cc1cc(-c2c(OCCOc3cccc(CO)n3)nc(N)nc2-c2ccc(F)cc2)cc(C(F)F)n1	nM	681
Cc1cc(-c2c(NCc3cccc(C(C)(C)C#N)n3)nc(N)nc2-c2ccc(F)cc2)cc(C(F)F)n1	nM	1420
Cc1cc(-c2c(OCc3nnn(C)n3)nc(N)nc2-c2ccc(F)cc2)cc(C(F)F)n1	nM	213
CCn1ccc(COc2nc(N)nc(-c3cccc(C#N)c3C)c2-c2cc(C)nc(C(F)F)c2)n1	nM	756
Cc1cc(-c2c(OCc3cn(C(C)C)nn3)nc(N)nc2-c2ccc(F)cc2)cc(C(F)F)n1	nM	394
Cc1cc(-c2c(OCc3nnn(CC(C)(C)O)n3)nc(N)nc2-c2ccc(F)cc2)cc(C(F)F)n1 [Example 291]	nM	5490
Cc1cc(-c2c(OCc3cccc(OCCC(C)(C)C(=O)O)n3)nc(N)nc2-c2ccc(F)cc2)cc(C(F)F)n1	nM	2890
COCC(O)c1cccc(COc2nc(N)nc(-c3ccc(F)cc3)c2-c2cc(C)nc(C(F)F)c2)n1 (stereo not drawn)	nM	609

1: Cc1cc(-c2c(OCc3cc(C(C)(C)O)ccn3)nc(N)nc2-c2ccc(F)cc2)cc(C(F)F)n1
2: Cc1cc(-c2c(OCCc3ccncc3)nc(N)nc2-c2ccc(F)cc2)cc(C(F)F)n1
Query string: Form field 'greater IC50' accepts 1 or 2 ; which applies? Bench note: the answer is the label of the chosen record.
Result string: 2

1: CCN1C(=O)OCC1COc1nc(N)nc(-c2ccc(F)cc2)c1-c1cc(C)nc(C(F)F)c1 (stereo not drawn)
2: Cc1cc(-c2c(OCc3nc4ccccn4n3)nc(N)nc2-c2ccc(F)cc2)cc(C(F)F)n1
3: Cc1cc(-c2c(OCc3nncn3CC3CC3)nc(N)nc2-c2ccc(F)cc2)cc(C(F)F)n1
4: Cc1cc(-c2c(OCc3cn(C(C)(C)C(=O)O)cn3)nc(N)nc2-c2ccc(F)cc2)cc(C(F)F)n1
Query string: Form: Sort by [IC50] Order [ ascending ] To answer, write out the labels according to the requested order.
Result string: 3, 2, 1, 4

P: Cc1cc(-c2c(OCc3cccc(C#CC(C)(C)C(=O)O)n3)nc(N)nc2-c2ccc(F)cc2)cc(C(F)F)n1
Q: Cc1cc(-c2c(OCc3ccc(C(C)(C)O)cn3)nc(N)nc2-c2ccc(F)cc2)cc(C(F)F)n1
R: Cc1cc(-c2c(OCc3cccc(OCCO)n3)nc(N)nc2-c2ccc(F)cc2)cc(C(F)F)n1
Query string: Hello, I need these entries ordered by IC50, highest reading first. Thanks! To answer, write out the labels according to the requested order.
Result string: P, Q, R

----------
- assayed_target: Adenosine A2A receptor (Homo sapiens, UniProt P29274)
- assay_remarks: Adenosine A2A receptor competitive binding assay (Tag-lite HTRF)
- condition_context: Tag-lite adenosine A2A receptor ligand binding, 2 h room temperature; values separated by / are repeat determinations
pIC50: −log10 of the molar value.
experimental_endpoint: pIC50

Some entries whose results are on file:
molecule	quantitative_result
Cc1cc(-c2c(C(=O)NC3CCCc4cccnc43)nc(N)nc2-c2ccc(F)cc2)cc(C(F)F)n1 (centres unmarked)	7.18
COCC(O)COc1nc(N)nc(-c2ccc(F)cc2)c1-c1cc(C)nc(C(F)F)c1 (centres unmarked)	8.38

A: COC(=O)NCCOc1nc(N)nc(-c2ccc(F)cc2)c1-c1cc(C)nc(C(F)F)c1
B: Cc1cc(-c2c(OCc3cnnn3C(C)C)nc(N)nc2-c2ccc(F)cc2)cc(C(F)F)n1
C: Cc1cc(-c2c(OCc3ccccn3)nc(N)nc2-c2ccc(F)cc2)cc(C(F)F)n1
Query string: Hello, I need these entries ordered by pIC50, highest reading first. Thanks! To answer, write out the labels according to the requested order.
Result string: C, A, B
(C: 9.62, A: 8.14, B: 7.82)

a: Cc1cc(-c2c(OCC(=O)N(CCO)CCO)nc(N)nc2-c2ccc(F)cc2)cc(C(F)F)n1
b: Cc1cc(-c2c(OCCCN3CCOCC3)nc(N)nc2-c2ccc(F)cc2)cc(C(F)F)n1
Query string: Smaller pIC50 value? Options are a and b Bench note: the answer is the label of the chosen record.
Result string: b
(b: 7.38, a: 7.66)

----------
- Test system: p-CREB (phosphorylated cAMP response-element binding protein) in human whole blood
- assay_remarks: p-CREB assay in human whole blood by flow cytometry (NECA stimulation, CD4 staining)
- Assay type: cell-based
- condition_context: Homo sapiens, replicate values separated by /
experimental_endpoint: IC50 (nM)

Some entries whose results are on file:
compound	assayed_target	IC50, nM
CNC(=O)NCc1cccc(COc2nc(N)nc(-c3ccc(F)cc3)c2-c2cc(C)nc(C(F)F)c2)n1 [Example 415]	p-CREB (phosphorylated cAMP response-element binding protein) in human whole blood	16
Cc1cc(-c2c(OCc3cccc(C(C)(C)NC(CO)CO)n3)nc(N)nc2-c2ccc(F)cc2)cc(C(F)F)n1 [Example 417]	p-CREB (phosphorylated cAMP response-element binding protein) in human whole blood	38.7
Cc1cc(-c2c(OCc3cccc(CNCC(=O)N(C)C)n3)nc(N)nc2-c2ccc(F)cc2)cc(C(F)F)n1 [Example 437]	p-CREB (phosphorylated cAMP response-element binding protein) in human whole blood	232
CNC(=O)OCc1cccc(COc2nc(N)nc(-c3ccc(F)cc3)c2-c2cc(C)nc(C(F)F)c2)n1 [Example 425]	p-CREB (phosphorylated cAMP response-element binding protein) in human whole blood	33.3
Cc1cc(-c2c(OCc3cccc(C4(CCO)CCOC4=O)n3)nc(N)nc2-c2ccc(F)cc2)cc(C(F)F)n1 (stereo not drawn) [Example 439]	p-CREB (phosphorylated cAMP response-element binding protein) in human whole blood	252
CNC(=O)CNCc1cccc(COc2nc(N)nc(-c3ccc(F)cc3)c2-c2cc(C)nc(C(F)F)c2)n1 [Example 440]	p-CREB (phosphorylated cAMP response-element binding protein) in human whole blood	95
CCC(CC)(C(=O)O)c1cccc(COc2nc(N)nc(-c3ccc(F)cc3)c2-c2cc(C)nc(C(F)F)c2)n1 [Example 398]	p-CREB (phosphorylated cAMP response-element binding protein) in human whole blood	43.6
Cc1cc(-c2c(OCc3cccc(COC(N)=O)n3)nc(N)nc2-c2ccc(F)cc2)cc(C(F)F)n1 [Example 429]	p-CREB (phosphorylated cAMP response-element binding protein) in human whole blood	33

I: COC(=O)NCc1cccc(COc2nc(N)nc(-c3ccc(F)cc3)c2-c2cc(C)nc(C(F)F)c2)n1 [Example 410]
II: Cc1cc(-c2c(OCc3ccnc(OC(CO)CO)n3)nc(N)nc2-c2ccc(F)cc2)cc(C(F)F)n1 [Example 434]
Query string: Smaller IC50 value? Options are I and II Bench note: the answer is the label of the chosen record.
Result string: I
(I: 20 nM, II: 411 nM)

a: Cc1cc(-c2c(OCc3cccc(CNCCO)n3)nc(N)nc2-c2ccc(F)cc2)cc(C(F)F)n1 [Example 418]
b: Cc1cc(-c2c(OCCN3CCCc4cccnc43)nc(N)nc2-c2ccc(F)cc2)cc(C(F)F)n1 [Example 408]
Query string: Smaller IC50 value? Options are a and b Bench note: the answer is the label of the chosen record.
Result string: b
(b: 37.9 nM, a: 89.3 nM)

----------
- assayed_target: Adenosine A2A receptor (Homo sapiens, UniProt P29274)
- assay_remarks: Adenosine A2A receptor competitive binding assay (Tag-lite HTRF)
- condition_context: Tag-lite adenosine A2A receptor ligand binding, 2 h room temperature; values separated by / are repeat determinations
pIC50: −log10 of the molar value.
experimental_endpoint: pIC50

Cc1cc(-c2c(OCC(=O)N(C)C)nc(N)nc2-c2ccccc2)cc(C(F)(F)F)n1 7.52
Cc1cc(-c2c(OCC(=O)Nc3ccccc3)nc(N)nc2-c2ccc(F)cc2)cc(C(F)F)n1 7.32
CCN(C(=O)COc1nc(N)nc(-c2ccc(F)cc2)c1-c1cc(C)nc(C(F)F)c1)C1COC1 7.54
Cc1cc(-c2c(OC3CCOCC3)nc(N)nc2-c2ccc(F)cc2)cc(C(F)F)n1 7.18
Cc1cc(-c2c(OCC3CCN(S(C)(=O)=O)CC3)nc(N)nc2-c2ccc(F)cc2)cc(C(F)F)n1 7.21

P: CCc1nn[nH]c1COc1nc(N)nc(-c2ccc(F)cc2)c1-c1cc(C)nc(C(F)F)c1
Q: Cc1cc(-c2c(OCCNS(N)(=O)=O)nc(N)nc2-c2ccc(F)cc2)cc(C(F)(F)F)n1
R: Cc1cc(-c2c(OCc3nccn3CC3CC3)nc(N)nc2-c2ccc(F)cc2)cc(C(F)F)n1
Query string: Form: Sort by [pIC50] Order [ ascending ] To answer, write out the labels according to the requested order.
Result string: P, Q, R
